# system_tested: Sterol O-acyltransferase 1 (Homo sapiens) (UniProt P35610)
# Sequence (P35610 whole entry): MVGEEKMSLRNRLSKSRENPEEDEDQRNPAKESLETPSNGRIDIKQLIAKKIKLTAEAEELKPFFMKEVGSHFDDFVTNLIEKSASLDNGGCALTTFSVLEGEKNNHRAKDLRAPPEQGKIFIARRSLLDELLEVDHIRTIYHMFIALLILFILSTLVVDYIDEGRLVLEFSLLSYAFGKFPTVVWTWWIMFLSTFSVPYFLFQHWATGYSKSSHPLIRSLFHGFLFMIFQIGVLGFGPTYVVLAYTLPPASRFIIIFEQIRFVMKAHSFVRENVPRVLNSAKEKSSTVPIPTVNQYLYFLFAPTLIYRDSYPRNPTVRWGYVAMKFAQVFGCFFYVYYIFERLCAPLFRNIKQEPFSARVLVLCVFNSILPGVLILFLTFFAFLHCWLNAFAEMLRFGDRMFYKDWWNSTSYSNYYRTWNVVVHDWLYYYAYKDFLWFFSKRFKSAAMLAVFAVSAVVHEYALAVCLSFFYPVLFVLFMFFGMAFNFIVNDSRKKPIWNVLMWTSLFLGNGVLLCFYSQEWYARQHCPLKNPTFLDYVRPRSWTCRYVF
# assay_summary: Inhibition of ACAT at 0.05 mg/mL
Activity calls are given as the source filed them. The calls are words filed in the database; no cut-off is given here.
measured_property: Activity

Consider the following illustrative entries.
Lookup: Returns the measured Activity for the input compound. Input: "C[C@@H]1O[C@@H](O[C@H]2[C@H](O[C@H]3CC[C@]4(C)[C@H]5CC=C6[C@H]7[C@](C(=O)O[C@@H]8O[C@H](CO)[C@@H](O)[C@H](O)[C@H]8O)(CC[C@@H](C)[C@@]7(C)O)CC[C@@]6(C)[C@]5(C)CC[C@H]4C3(C)C)OC[C@H](O)[C@@H]2O)[C@H](O)[C@H](O)[C@H]1O"
Found: inactive

Lookup: Note, next up: "C[C@H]1[C@H](C)CC[C@]2(C(=O)O[C@@H]3O[C@H](CO)[C@@H](O)[C@H](O)[C@H]3O)CC[C@]3(C)C(=CC[C@@H]4[C@@]5(C)C[C@@H](O)[C@H](O[C@@H]6OC[C@H](O)[C@H](O)[C@H]6O)[C@@](C)(CO)[C@@H]5CC[C@]43C)[C@H]12"
Found: inactive

Lookup: Note, next up: "C[C@@H]1O[C@@H](O[C@H]2[C@H](OC(=O)[C@]34CCC(C)(C)[C@@H](O)[C@H]3C3=CC[C@@H]5[C@@]6(C)CC[C@H](O[C@@H]7OC[C@H](O)[C@H](O[C@@H]8O[C@H](CO)[C@@H](O)[C@H](O)[C@H]8O)[C@H]7O[C@@H]7O[C@@H](C)[C@H](O)[C@@H](O)[C@H]7O)C(C)(C)[C@@H]6CC[C@@]5(C)[C@]3(C)CC4)O[C@H](CO)[C@@H](O)[C@@H]2O)[C@H](O)[C@H](O)[C@H]1O"
Found: inactive

Lookup: Note, next up: "C[C@@H]1O[C@@H](O[C@H]2[C@H](OC(=O)[C@]34CC[C@@H](C)[C@@](C)(O)[C@H]3C3=CC[C@@H]5[C@@]6(C)CC[C@H](O[C@@H]7OC[C@H](O)[C@H](O[C@@H]8O[C@H](CO)[C@@H](O)[C@H](O)[C@H]8O)[C@H]7O[C@@H]7O[C@@H](C)[C@H](O)[C@@H](O)[C@H]7O)C(C)(C)[C@@H]6CC[C@@]5(C)[C@]3(C)CC4)O[C@H](CO)[C@@H](O)[C@@H]2O)[C@H](O)[C@H](O)[C@H]1O"
Found: inactive

Lookup: Note, next up: "C[C@@H]1CC[C@]2(C(=O)O[C@@H]3O[C@H](CO)[C@@H](O)[C@H](O)[C@H]3O)CC[C@]3(C)C(=CC[C@@H]4[C@@]5(C)CC[C@H](O[C@@H]6OC[C@H](O)[C@H](O)[C@H]6O)[C@@](C)(CO)[C@@H]5CC[C@]43C)[C@@H]2[C@]1(C)O"
Found: inactive

Here is the next item to consider.
Lookup: Returns the measured Activity for the input compound. Input: "C[C@@H]1O[C@@H](O[C@H]2[C@H](O[C@H]3CC[C@]4(C)[C@H]5[C@@H](O)CC6=C7[C@]8(CC[C@](C)(OC8=O)[C@@]7(C)O)CC[C@@]6(C)[C@]5(C)CC[C@H]4C3(C)C)OC[C@H](O)[C@@H]2O[C@@H]2O[C@H](CO)[C@@H](O)[C@H](O)[C@H]2O[C@@H]2O[C@H](CO)[C@@H](O)[C@H](O)[C@H]2O)[C@H](O)[C@H](O)[C@H]1O"
Found: inactive
